- target: AKR1C3 (Homo sapiens (Human))
- Sequence (P42330 whole entry): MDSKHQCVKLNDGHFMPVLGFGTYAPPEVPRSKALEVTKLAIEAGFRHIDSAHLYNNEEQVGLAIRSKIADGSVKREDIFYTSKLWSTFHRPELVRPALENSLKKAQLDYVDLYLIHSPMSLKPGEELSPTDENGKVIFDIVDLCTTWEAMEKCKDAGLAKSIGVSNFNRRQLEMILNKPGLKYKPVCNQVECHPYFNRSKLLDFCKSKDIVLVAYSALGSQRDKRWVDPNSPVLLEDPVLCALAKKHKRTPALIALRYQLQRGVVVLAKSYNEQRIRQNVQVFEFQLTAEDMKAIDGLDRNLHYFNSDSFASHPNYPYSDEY
readout: pKd
pKd is a log-scale quantity: -log10 of the concentration expressed in molar.

API: value(readout=pKd, system=AKR1C3 (Homo sapiens (Human))) for record C[C@]12CC[C@@H]3c4ccc(CCC(=O)O)cc4CC[C@H]3[C@@H]1CC=C2c1cncc(F)c1
6.64
